Each entry below carries its recorded IC50 at 1 day.
- assay summary: MTT cytotoxicity assay in SH-SY5Y cells
- Type: cell-based
- experimental context: human, one day treatment
The reply should contain only the number, in µM.

>>> quantitative_readout("CC(/C=C/C=C(\\C)C(=O)O[C@@H]1O[C@H](CO[C@@H]2O[C@H](CO)[C@@H](O)[C@H](O)[C@H]2O)[C@@H](O)[C@H](O)[C@H]1O)=C\\C=C\\C=C(C)\\C=C\\C=C(/C)C(=O)O[C@@H]1O[C@H](CO[C@@H]2O[C@H](CO)[C@@H](O)[C@H](O)[C@H]2O)[C@@H](O)[C@H](O)[C@H]1O")
970

API: the following record is the query input.
Req: What value of measured IC50 at 1 day is listed for `COC(=O)C1=CO[C@@H](O)[C@@H]2C(CO)=CC[C@H]12` ?
Resp: 100
